The measured values listed here are drawn from PubChem BioAssay.

protocol-summary: calcium flux activation in mu-opioid HEK293 cells, confirmation, counter-screen for TRPC4 activator project, cell-based, HEK293 mu-opioid receptor line (AID 449723);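 note: counter screen cells carry the mu-opioid receptor alone and lack TRPC4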
measurement-parameters: Fluo-4 calcium fluorescence, at 10 µM
Activity calls are given as the source filed them.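 Rule for the calls: active = hit in primary screen, with calcium signal over 5 SD above buffer well mean in both duplicates; inactive = the rest.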
Form entry, call: pick from 1 = active, 0 = inactive

Completed entries (count: 10):
molecule	label-value
CCN(CC)c1ccc([N+](=O)[O-])c2cccnc12	0
O=C(Cc1ccccc1)N1CCN(Cc2cccc(Br)c2)CC1	0
CC(Cc1ccccc1Sc1ccccc1O)N(C)C (configuration not stated)	0
COC(=O)C1=C(c2cc3ccccc3s2)C[C@@H]2CC[C@H]1N2C(=O)NCCO	0
COc1ccc(CNCCc2c[nH]c3ccccc23)c(OC)c1C	0
COc1ccc2c(c1O)C13CCN(C)C(C2)C1CCC(=O)C3 (configuration not stated)	0
CCCCc1ncc(CN2CCCC(C(=O)c3ccc(SC)cc3)C2)[nH]1 (configuration not stated)	0
C[C@H]1OC[C@@H](C[N+](C)(C)C)O1	1
CN(C)C1(CNC(=O)Nc2ccc(Cl)c(Cl)c2)CCCCC1	1
Fc1cccc(C2NCCc3[nH]cnc32)c1 (configuration not stated)	0

Returns: the outcome recorded for CNCCc1nc(N)n[nH]1 in this assay. 0

Proceed to CC(Cc1ccccc1)NCC(=O)Nc1cc(N(C)C)nc2ccccc12 (configuration not stated) 0

Next up: Nc1cc(N2CCNCC2)ccc1[N+](=O)[O-] 0

Moving on to NC(N)=N/N=C/c1ccc(N(c2ccccc2)c2ccccc2)cc1 1

What about CCN(CC)CC(=O)Nc1ccc(Cl)cc1C(=O)c1ccccc1 ? 0

Consider next the molecule N=c1c[n+](CC23CC4CC(CC(C4)C2)C3)[n-]o1 in the same way. 0

Same again, this time with COc1cc2c3cc1Oc1cc(ccc1O)C[C@@H]1c4c(cc(OC)c(O)c4Oc4ccc(cc4)C[C@H]3N(C)CC2)CCN1C 0

How about O=[N+]([O-])c1ccc(N2CCNCC2)c(Cl)c1 ? 0

Likewise for Cn1c(N2CCNCC2)nc2ccccc21 ? 0

How about this molecule: COc1ccc(C(CNC(=O)CCc2ccsc2)N(C)C)cc1 (configuration not stated) 0

And the next one, CN(C)CCn1cnc2ccccc21 ? 0

----------
experimental-target: Short transient receptor potential channel 4 (Mus musculus) (UniProt Q9QUQ5)
Sequence (Q9QUQ5 whole entry, looked up): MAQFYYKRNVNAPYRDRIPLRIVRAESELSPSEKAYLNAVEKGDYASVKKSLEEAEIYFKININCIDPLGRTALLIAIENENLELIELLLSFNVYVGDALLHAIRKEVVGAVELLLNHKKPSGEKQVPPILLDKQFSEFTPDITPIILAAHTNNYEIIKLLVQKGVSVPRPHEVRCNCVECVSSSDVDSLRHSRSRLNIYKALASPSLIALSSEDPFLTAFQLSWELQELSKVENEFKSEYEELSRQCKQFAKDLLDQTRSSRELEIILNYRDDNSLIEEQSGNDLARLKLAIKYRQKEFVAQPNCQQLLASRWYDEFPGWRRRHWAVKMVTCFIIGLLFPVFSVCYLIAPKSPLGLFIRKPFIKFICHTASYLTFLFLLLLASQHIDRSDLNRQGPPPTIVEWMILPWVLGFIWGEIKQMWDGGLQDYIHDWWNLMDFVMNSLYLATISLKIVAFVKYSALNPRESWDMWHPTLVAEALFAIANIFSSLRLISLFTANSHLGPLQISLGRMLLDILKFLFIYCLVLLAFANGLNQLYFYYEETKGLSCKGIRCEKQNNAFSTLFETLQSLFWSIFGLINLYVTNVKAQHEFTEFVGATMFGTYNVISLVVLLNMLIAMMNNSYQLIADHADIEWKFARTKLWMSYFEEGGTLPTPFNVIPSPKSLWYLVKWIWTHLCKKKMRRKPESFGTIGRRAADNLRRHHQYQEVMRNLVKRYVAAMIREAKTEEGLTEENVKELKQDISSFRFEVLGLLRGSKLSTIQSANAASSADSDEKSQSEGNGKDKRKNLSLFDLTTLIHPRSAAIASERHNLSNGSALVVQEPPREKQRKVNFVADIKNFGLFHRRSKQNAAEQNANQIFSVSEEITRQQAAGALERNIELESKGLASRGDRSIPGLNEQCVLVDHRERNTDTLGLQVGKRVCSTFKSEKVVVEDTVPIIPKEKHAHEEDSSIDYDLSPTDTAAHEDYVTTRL
protocol-summary: inhibitors of mouse TRPC4 channel, confirmation, cell-based, Fluo4, HEK293 TRPC4beta/mu-opioid (AID 2636)
measurement-parameters: DAMGO, Fluo4 calcium flux, at 10 µM; stronger effect = higher value
The source made the active and inactive calls.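 Rule for the calls: active = calcium signal cut by more than 3 SD below the full-agonist control yet still positive, in both repeats and the earlier primary screen; inactive = the rest.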
experimental-endpoint: inhibition

compound	experimental-target	inhibition
COc1ccc(C2NCCc3[nH]cnc32)cc1 (stereo not drawn)	Short transient receptor potential channel 4 (Mus musculus) (UniProt Q9QUQ5)	inactive
N=c1n(CCO)c2ccccc2n1Cc1ccccc1	Short transient receptor potential channel 4 (Mus musculus) (UniProt Q9QUQ5)	86% (active)
Fc1cccc(C2NCCc3[nH]cnc32)c1 (stereo not drawn)	Short transient receptor potential channel 4 (Mus musculus) (UniProt Q9QUQ5)	inactive
O=C1OC(c2ccc([N+](=O)[O-])cc2)=N/C1=C/N1CC2CC(C1)c1cccc(=O)n1C2 (stereo not drawn)	Short transient receptor potential channel 4 (Mus musculus) (UniProt Q9QUQ5)	inactive

Reported inhibition for COc1ccc2c(c1O)C13CCN(C)C(C2)C1CCC(=O)C3 (stereo not drawn) : what is it? inactive

Now consider CCOc1c(Cl)cc(CNC(C)C(O)c2ccccc2)cc1OC (stereo not drawn) . 99% (active)

Another compound: COc1ccc(OC)c(CN2CCCC(C(=O)c3sccc3C)C2)c1 (stereo not drawn) 97% (active)

Next up: COc1ccc(CCNCc2ccc(SC)cc2)cc1 inactive

Could you do the same for COc1ccc(C)cc1NC1=NC(C)(C)CS1 , please? 89% (active)

One more compound: Cc1ccc(C[n+]2c(-c3ccc(C)cc3)cc(-c3ccc(C)cc3)cc2-c2ccc(C)cc2)cc1 inactive

Can you check CC[C@@H](CO)NC(=O)[C@@H]1C=C2c3cccc4c3c(cn4C)C[C@H]2N(C)C1 next? inactive

Next: CC1(C)CC(CCNCc2ccc3c(c2)OCO3)(Cc2ccccc2)CCO1 (stereo not drawn) inactive

Follow-up item: Cn1c(N2CCNCC2)nc2ccccc21 inactive
